Test system: NCI-H522 lung
assay: NCI tumour cell line growth inhibition, 48 h
Examples of molecules with documented TGI follow.
readout.label: TGI (µM)

molecule=CCOP(=O)(Nc1ccc(-c2ccccc2)cc1)OCC value_unit=µM rel=> value_measured=100
molecule=COc1cc(CSc2nc3ccc(C)cc3c(=O)n2Cc2ccccc2)cc(OC)c1OC value_unit=µM rel== value_measured=2.53
molecule=N#Cc1ccccc1C#C/C=C\C#Cc1ccc(OCCCNC(=O)c2cc3ccccc3[nH]2)cc1 value_unit=µM rel== value_measured=32.3
molecule=NNC(=O)c1c(Cl)c(Cl)c(Cl)c(Cl)c1-c1nc2ccccc2[nH]1 value_unit=µM rel=> value_measured=100
molecule=O=C(COc1cccc(/C=C2\COc3ccccc3C2=O)c1)Nc1nccs1 value_unit=µM rel== value_measured=3.19
molecule="COc1ccc2c3c1C(=O)CCC3CO2 (stereo not given)" value_unit=µM rel=> value_measured=100
molecule="CC(=O)OC12c3ccccc3C1CCCCCC21OCCCO1 (stereo not given)" value_unit=µM rel=> value_measured=100
molecule=COc1cccc(/C=N\Nc2ccc([N+](=O)[O-])cn2)c1O value_unit=µM rel== value_measured=18.4
molecule=O=C(O)CSCC(=O)Nc1ccc2cccc3c2c1CC3 value_unit=µM rel=> value_measured=100

====

Collected TGI values appear next to each entry.
System: NCI-H23 lung
assay: NCI tumour cell line growth inhibition, 48 h
readout.label: TGI

molecule="CC(=O)OC1COC(S[As](C)C)C(OC(C)=O)C1OC(C)=O (configuration not stated)" target_of_assay="NCI-H23 lung" value_measured="4.53 µM"
molecule=COc1ccc(/C=C2\CSC/C(=C\c3ccc(OC)c(OC)c3OC)C2=O)c(OC)c1OC target_of_assay="NCI-H23 lung" value_measured="> 100 µM"
molecule=O=c1cc(Cl)nc[nH]1 target_of_assay="NCI-H23 lung" value_measured="> 100 µM"
molecule=C(=C\c1csnn1)/c1cccnc1 target_of_assay="NCI-H23 lung" value_measured="> 100 µM"
molecule=O=C(Nc1cc(C(F)(F)F)ccc1F)Nc1n[nH]c2ccccc12 target_of_assay="NCI-H23 lung" value_measured="> 100 µM"
molecule=O=C1/C(=C/c2ccccc2Cl)N=C(c2ccccc2)N1Cc1ccco1 target_of_assay="NCI-H23 lung" value_measured="> 100 µM"
molecule=CCOc1ccccc1/C=C1\NC(=O)N(/C=C2\C(=O)Oc3ccccc3C2=O)C1=O target_of_assay="NCI-H23 lung" value_measured="95.5 µM"

====

Test system: HCT-15 colon
assay: NCI tumour cell line growth inhibition, 48 h
readout.label: TGI

molecule=O=C(NO)c1coc2ccccc2c1=O readout_label=TGI value_measured="> 100 µM"
molecule=Cn1c(CCC#N)nc2ccc(Br)cc2c1=O readout_label=TGI value_measured="> 100 µM"
molecule=O=C(Nc1cc(C(F)(F)F)ccc1F)Nc1n[nH]c2ccccc12 readout_label=TGI value_measured="> 100 µM"
molecule="CC1(c2ccc(Cl)cc2)CC(c2ccc(Cl)cc2)=C(C#N)C(=C(C#N)C#N)N1 (stereo not drawn)" readout_label=TGI value_measured="32.5 µM"
molecule=O=C(c1cc(Cl)cc(Cl)c1)N(C(=S)OC12CC3CC(CC(C3)C1)C2)c1ccccc1 readout_label=TGI value_measured="> 100 µM"
molecule=O=C(CSc1nc(=O)[nH]c2nc[nH]c12)Nc1ccccc1 readout_label=TGI value_measured="> 100 µM"
molecule=COc1ccc2[nH]cc(-c3nc(-c4cn(C)c5ccncc45)cs3)c2c1 readout_label=TGI value_measured="3.92 µM"
molecule="CCC(Sc1nnc2c3ccccc3n(CC)c2n1)C(=O)Nc1ccccc1OC (stereo not drawn)" readout_label=TGI value_measured="> 100 µM"
molecule="C=C1CC(CCCl)(c2ccccc2)OC1=O (stereo not drawn)" readout_label=TGI value_measured="39.2 µM"
molecule=Cc1ccc2c(c1)NC(=O)CCSSCCC(=O)N2 readout_label=TGI value_measured="> 100 µM"
molecule=CC(C)(C)c1ccc([I+]c2ccc(C(C)(C)C)cc2)cc1 readout_label=TGI value_measured="18.2 µM"
molecule="COC(CCP(=O)(c1ccccc1)c1ccccc1)(C(=O)c1ccccc1)c1ccccc1 (stereo not drawn)" readout_label=TGI value_measured="13.6 µM"
molecule=Nc1cc(-c2ccccc2)ccc1O readout_label=TGI value_measured="> 100 µM"
molecule=Cc1cc2[nH]c3c(C#N)c(-c4ccccc4)c(N=Nc4cccc(C(F)(F)F)c4)c(=O)n3c2cc1C readout_label=TGI value_measured="> 100 µM"
molecule=COC(=O)CC1(CNC(=O)OCc2ccccc2)OCCO1 readout_label=TGI value_measured="> 100 µM"
molecule=CN(C)CCn1c2ccccc2c2nc3cc4ccccc4cc3nc21 readout_label=TGI value_measured="18.7 µM"
molecule=CC(=O)Nc1ncc(Sc2ccccc2C(=O)O)s1 readout_label=TGI value_measured="> 100 µM"
molecule=OCCN(CCO)c1ccc2c(C(F)(F)F)cc(C(F)(F)F)nc2n1 readout_label=TGI value_measured="> 100 µM"

====

Reported TGI is given for each of the following molecules.
System: EKVX NSCLC
assay: NCI tumour cell line growth inhibition, 48 h
readout.label: TGI

molecule=O=C(COc1cccc(/C=C2\COc3ccccc3C2=O)c1)Nc1nccs1 target_of_assay="EKVX NSCLC" readout_label=TGI value_measured="17.1 µM"
molecule=COc1ccc(-c2n[nH]nc2-c2csc3ccccc23)cc1OC target_of_assay="EKVX NSCLC" readout_label=TGI value_measured="> 100 µM"
molecule=Cc1cc2[nH]c3c(C#N)c(-c4ccccc4)c(N=Nc4cccc(C(F)(F)F)c4)c(=O)n3c2cc1C target_of_assay="EKVX NSCLC" readout_label=TGI value_measured="> 100 µM"
molecule="O=C1c2ccccc2CC12Cc1cc3c(cc1C2=O)CCC3 (stereo unspecified)" target_of_assay="EKVX NSCLC" readout_label=TGI value_measured="> 100 µM"
molecule=O=C(OCCOCBr)c1ccccc1 target_of_assay="EKVX NSCLC" readout_label=TGI value_measured="> 100 µM"
molecule="COc1ccc(C2SCC(=O)N2c2ccc(-c3ccc(-n4c(-c5ccccc5)nc5ccccc5c4=O)cc3)cc2)cc1 (stereo unspecified)" target_of_assay="EKVX NSCLC" readout_label=TGI value_measured="> 100 µM"
molecule=CN1C(c2ccccc2)=CC(=O)C(O)=C(c2ccccc2)S1(=O)=O target_of_assay="EKVX NSCLC" readout_label=TGI value_measured="> 100 µM"
molecule=Cc1nc2c(o1)C(=O)c1ccccc1/C2=N/c1ccccn1 target_of_assay="EKVX NSCLC" readout_label=TGI value_measured="41.6 µM"
molecule=O=C1C=C(Nc2ccccc2C(=O)CC(=O)C(=O)Nc2cccc(C(F)(F)F)c2)c2ccccc2C1=O target_of_assay="EKVX NSCLC" readout_label=TGI value_measured="98.7 µM"
molecule="COc1cc(-c2[nH]ccc2Cl)oc1C1=C2N=C3C=C2C(C(C)C)C1CCCCCCCC3 (stereo unspecified)" target_of_assay="EKVX NSCLC" readout_label=TGI value_measured="3.51 µM"
molecule=O=C1c2ccccc2-c2nc(-c3cccnc3)cc3c2c1nc1ccccc13 target_of_assay="EKVX NSCLC" readout_label=TGI value_measured="> 100 µM"
molecule=Cc1cc(N(CCC#N)CCC#N)ccc1/C(N=Nc1cccc([N+](=O)[O-])c1)=N/NC(=O)c1cc(Cl)ccc1O target_of_assay="EKVX NSCLC" readout_label=TGI value_measured="93.6 µM"
molecule=CC(=O)Nc1ncc(Sc2ccccc2C(=O)O)s1 target_of_assay="EKVX NSCLC" readout_label=TGI value_measured="> 100 µM"
molecule="CO[C@@H]1[C@@H](OC2OC(C)C(OC3CC(C)(O)C(OC(=O)CC(C)C)C(C)O3)C(N(C)C)C2O)[C@@H](CC=O)C[C@@H](C)C(=O)/C=C/C2O[C@H]2C[C@@H](C)OC(=O)C[C@H]1OC(C)=O (stereo partly specified)" target_of_assay="EKVX NSCLC" readout_label=TGI value_measured="> 100 µM"
molecule=O=C(CN1CCN(C(=O)OCc2ccccc2)CCN(CC(=O)N2CCCCC2)CCN(C(=O)OCc2ccccc2)CC1)N1CCCCC1 target_of_assay="EKVX NSCLC" readout_label=TGI value_measured="> 56.7 µM"
molecule=NNC(=O)c1c(Cl)c(Cl)c(Cl)c(Cl)c1-c1nc2ccccc2[nH]1 target_of_assay="EKVX NSCLC" readout_label=TGI value_measured="45.3 µM"
molecule=C/C(=N\Nc1ccc([N+](=O)[O-])cc1[N+](=O)[O-])c1ccc2ccccc2n1 target_of_assay="EKVX NSCLC" readout_label=TGI value_measured="> 100 µM"
molecule=COc1ccc2c(c1)C/C(=C\c1ccc(O)c(OC)c1)C2=O target_of_assay="EKVX NSCLC" readout_label=TGI value_measured="> 100 µM"
molecule="CC(ONC(=O)c1cc(C(F)(F)F)cc(C(F)(F)F)c1)C(=O)Nc1ccc(Cl)cc1 (stereo unspecified)" target_of_assay="EKVX NSCLC" readout_label=TGI value_measured="> 63 µM"
molecule=c1ccc(N=C2SC(=NNc3ccccc3)SC2=Nc2ccccc2)cc1 target_of_assay="EKVX NSCLC" readout_label=TGI value_measured="> 100 µM"
molecule=CCOC(=O)CC1(O)C=CC(=O)C=C1 target_of_assay="EKVX NSCLC" readout_label=TGI value_measured="6.16 µg/mL"
molecule=CC1=CC(C)(C)N=C2SC(c3ccc(Cl)cc3)=NN12 target_of_assay="EKVX NSCLC" readout_label=TGI value_measured="> 100 µM"
molecule=CCC[C@H](N[C@@H]1CCc2cc(F)cc(F)c2C1)C(=O)Nc1cn(C(C)(C)CNCC(C)(C)C)cn1 target_of_assay="EKVX NSCLC" readout_label=TGI value_measured="> 100 µM"
molecule=O=C1CCCc2c1c1c(n2Cc2ccccc2)-c2ccccc2C1=O target_of_assay="EKVX NSCLC" readout_label=TGI value_measured="91.3 µM"
molecule="COCCOC(=O)C1=C(C)NC2=C(C(=O)CC(c3ccccc3OC)C2)C1c1cccc(O)c1 (stereo unspecified)" target_of_assay="EKVX NSCLC" readout_label=TGI value_measured="> 100 µM"
molecule=CC(C)=CCc1c(O)cc(/C=C/c2cc(O)c3c(c2)C[C@@H]2C(C)(C)[C@H](O)[C@H](O)C[C@@]2(C)O3)cc1O target_of_assay="EKVX NSCLC" readout_label=TGI value_measured="4.49 µM"
molecule="CC(=O)O[C@H]1C[C@]2(C)C(CCC3O[C@@]32C)[C@@]2(CC(c3ccoc3)OC2O)[C@@H]1C (stereo partly specified)" target_of_assay="EKVX NSCLC" readout_label=TGI value_measured="> 100 µM"
molecule=COc1cc2c(c(OC)c1OC)-c1[nH]ncc1CC2 target_of_assay="EKVX NSCLC" readout_label=TGI value_measured="> 100 µM"
molecule=CC(C)(C)[Si](C)(C)OCCCC#CCO target_of_assay="EKVX NSCLC" readout_label=TGI value_measured="> 100 µM"
molecule=Cc1ccc2c(c1)NC(=O)CCSSCCC(=O)N2 target_of_assay="EKVX NSCLC" readout_label=TGI value_measured="> 100 µM"
molecule="CC1(O)CC2C(CC1SCCO)C2(C)C (stereo unspecified)" target_of_assay="EKVX NSCLC" readout_label=TGI value_measured="> 100 µM"
molecule=COc1cnc2c(c1)C(=O)c1c-2n(CCCn2ccnc2)c(=O)c2cc(Cl)ccc12 target_of_assay="EKVX NSCLC" readout_label=TGI value_measured="> 100 µM"
molecule="Nc1nc(Cl)cc(NCC2(CO)CCC(Cc3ccccc3)C2)n1 (stereo unspecified)" target_of_assay="EKVX NSCLC" readout_label=TGI value_measured="> 100 µM"
molecule=O=C(Nc1ccc(Br)cc1)Nc1n[nH]c2ccccc12 target_of_assay="EKVX NSCLC" readout_label=TGI value_measured="> 100 µM"
molecule=CC(=O)Nc1ccc(CNc2cc(=O)[nH]c(=O)[nH]2)cc1 target_of_assay="EKVX NSCLC" readout_label=TGI value_measured="> 100 µM"
molecule=CCOc1ccccc1/C=C1\NC(=O)N(/C=C2\C(=O)Oc3ccccc3C2=O)C1=O target_of_assay="EKVX NSCLC" readout_label=TGI value_measured="> 100 µM"
molecule=COc1ccc(/C=C2\CSC/C(=C\c3ccc(OC)c(OC)c3OC)C2=O)c(OC)c1OC target_of_assay="EKVX NSCLC" readout_label=TGI value_measured="> 100 µM"
molecule="CCCCCCCCCCCCCCCC(=O)OCC(O)C1OC(=O)C(O)=C1O (stereo unspecified)" target_of_assay="EKVX NSCLC" readout_label=TGI value_measured="> 100 µM"
molecule="C=CC1CC12C(=O)C1OC2(C)C2C(=O)c3c(ccc4c3ccc3ccccc34)C(=O)C12 (stereo unspecified)" target_of_assay="EKVX NSCLC" readout_label=TGI value_measured="> 100 µM"
molecule=O=c1c2ccc3cccc4c(=O)cc(c5ccccc15)-c2c34 target_of_assay="EKVX NSCLC" readout_label=TGI value_measured="> 100 µM"
molecule=CCSC1=N/C(=C\c2ccccc2O)C(Nc2ccc(C)cc2)=N1 target_of_assay="EKVX NSCLC" readout_label=TGI value_measured="> 100 µM"

Source: PubChem BioAssay (NCI)
